assayed target: HiBit-BRG1 fusion protein (Homo sapiens, UniProt P51532)
Construct: expressed in transfected cells
Sequence (P51532 whole entry, the tested form may be a part): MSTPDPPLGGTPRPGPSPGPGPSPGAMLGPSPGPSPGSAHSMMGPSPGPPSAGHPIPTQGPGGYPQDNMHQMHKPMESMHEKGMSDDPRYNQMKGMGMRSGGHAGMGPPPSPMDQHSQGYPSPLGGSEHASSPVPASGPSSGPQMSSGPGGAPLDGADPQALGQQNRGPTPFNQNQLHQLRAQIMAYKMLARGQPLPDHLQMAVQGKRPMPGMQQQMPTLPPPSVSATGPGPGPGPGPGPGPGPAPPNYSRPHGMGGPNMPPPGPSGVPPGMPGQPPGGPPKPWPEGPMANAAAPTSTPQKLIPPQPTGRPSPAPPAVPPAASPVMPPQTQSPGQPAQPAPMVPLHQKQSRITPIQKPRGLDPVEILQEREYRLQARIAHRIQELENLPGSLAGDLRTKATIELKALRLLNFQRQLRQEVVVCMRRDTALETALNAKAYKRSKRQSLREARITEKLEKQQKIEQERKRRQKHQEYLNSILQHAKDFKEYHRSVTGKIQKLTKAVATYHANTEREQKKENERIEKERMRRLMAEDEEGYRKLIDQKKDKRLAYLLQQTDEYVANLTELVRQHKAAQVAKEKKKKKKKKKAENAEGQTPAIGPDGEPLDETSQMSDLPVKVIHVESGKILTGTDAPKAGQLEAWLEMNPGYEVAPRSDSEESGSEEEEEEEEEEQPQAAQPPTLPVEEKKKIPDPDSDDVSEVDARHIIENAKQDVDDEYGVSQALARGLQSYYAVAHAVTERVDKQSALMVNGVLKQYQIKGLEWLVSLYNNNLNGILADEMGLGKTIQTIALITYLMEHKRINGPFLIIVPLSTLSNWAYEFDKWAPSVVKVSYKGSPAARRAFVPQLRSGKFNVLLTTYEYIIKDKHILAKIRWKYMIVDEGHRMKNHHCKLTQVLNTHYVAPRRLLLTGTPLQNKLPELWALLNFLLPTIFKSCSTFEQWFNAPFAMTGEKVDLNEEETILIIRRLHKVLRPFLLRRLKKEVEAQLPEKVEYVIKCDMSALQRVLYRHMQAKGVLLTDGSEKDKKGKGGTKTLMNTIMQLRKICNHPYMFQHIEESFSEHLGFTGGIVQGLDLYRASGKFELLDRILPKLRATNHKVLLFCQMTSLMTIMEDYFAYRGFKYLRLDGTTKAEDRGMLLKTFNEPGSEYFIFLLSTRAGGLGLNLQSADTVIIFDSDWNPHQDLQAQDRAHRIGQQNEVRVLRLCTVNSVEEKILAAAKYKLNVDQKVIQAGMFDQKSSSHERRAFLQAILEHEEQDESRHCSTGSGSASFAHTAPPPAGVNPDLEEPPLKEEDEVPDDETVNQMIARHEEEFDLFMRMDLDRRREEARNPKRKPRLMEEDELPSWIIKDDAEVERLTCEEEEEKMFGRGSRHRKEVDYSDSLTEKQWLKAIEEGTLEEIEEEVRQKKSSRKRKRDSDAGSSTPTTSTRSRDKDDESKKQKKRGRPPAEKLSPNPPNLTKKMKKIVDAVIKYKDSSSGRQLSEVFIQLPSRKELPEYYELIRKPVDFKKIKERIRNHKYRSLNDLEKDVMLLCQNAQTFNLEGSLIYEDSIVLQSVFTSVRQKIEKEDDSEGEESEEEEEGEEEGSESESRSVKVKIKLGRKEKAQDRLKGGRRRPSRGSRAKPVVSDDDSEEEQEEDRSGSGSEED
method notes: HiBiT-BRG1 cell-based degradation assay (Nano-Glo HiBiT lytic detection, 24 h)
measurement conditions: HeLa cell line expressing HiBit-BRG1 and LgBit, read-out: BRMG1 HiBit Degradation IC50
reported endpoint: DC50

A selection of reference data follows.
line notation	DC50
Cc1ncsc1-c1ccc([C@H](C)NC(=O)[C@@H]2C[C@@H](O)CN2C(=O)[C@@H](c2cc(OCCN3CCC(O)(c4cc5nnc(-c6ccccc6O)cc5n4C)CC3)no2)C(C)C)cc1	> 100 nM
Cc1ncsc1-c1ccc([C@H](C)NC(=O)[C@@H]2C[C@@H](O)CN2C(=O)[C@@H](c2cc(N3CC4(CC(c5cc6nnc(-c7ccccc7O)cc6n5C)C4)C3)no2)C(C)C)cc1	> 10 nM
Cc1ncsc1-c1ccc([C@H](C)NC(=O)[C@@H]2C[C@@H](O)CN2C(=O)[C@@H](c2cc(OCCN3CCN(c4cc5nnc(-c6ccccc6O)cc5n4C)CC3)no2)C(C)C)cc1	> 10 nM

## Input Given the compound `Cc1ncsc1-c1ccc([C@H](C)NC(=O)[C@@H]2C[C@@H](O)CN2C(=O)[C@@H](c2cc(N3CCC(C(=O)N4CC(c5cc6nnc(-c7ccccc7O)cc6[nH]5)C4)CC3)no2)C(C)C)cc1` , write its reported DC50.
## Output > 100 nM

## Input Given the compound `Cc1ncsc1-c1ccc([C@H](C)NC(=O)[C@@H]2C[C@@H](O)CN2C(=O)[C@@H](c2cc(-c3cnc(N4CC[C@@H](c5cc6nnc(-c7ccccc7O)cc6n5C5CC5)C4)nc3)no2)C(C)C)cc1` , write its reported DC50.
## Output < 10 nM

---

assayed target: HiBit-BRG1 fusion protein (Homo sapiens, UniProt P51532)
Construct: expressed in transfected cells
method notes: HiBiT-BRG1 cell-based degradation assay (Nano-Glo HiBiT lytic detection, 24 h)
measurement conditions: HeLa cell line expressing HiBit-BRG1 and LgBit, read-out: BRG1 HiBit Degradation Maximum (%)
Below: a set of entries, each annotated with reported Dmax.

A selection of reference data follows.
compound	Dmax
Cc1ncsc1-c1ccc([C@H](C)NC(=O)[C@@H]2C[C@@H](O)CN2C(=O)[C@@H](c2cc(OCC(=O)N3CC(c4cc5nnc(-c6ccccc6O)cc5[nH]4)C3)no2)C(C)C)cc1	< 50%
Cc1ncsc1-c1ccc([C@H](C)NC(=O)[C@@H]2C[C@@H](O)CN2C(=O)[C@H](c2cc(-c3cnc(N4CCC(c5cc6nnc(-c7ccccc7O)cc6n5C5(C)CC5)CC4)nc3)no2)C(C)C)cc1	< 50%
Cc1cc(-c2cc([C@H](C(=O)N3C[C@H](O)C[C@H]3C(=O)N[C@@H](C)c3ccc(-c4scnc4C)cc3)C(C)C)on2)cnc1N1CC[C@@H](c2cc3nnc(-c4ccccc4O)cc3n2C2CC2)C1	< 50%
Cc1ncsc1-c1ccc(CNC(=O)[C@@H]2C[C@@H](O)CN2C(=O)[C@@H](c2cc(-c3cnc(N4CC[C@H](c5cc6nnc(-c7ccccc7O)cc6n5C5CC5)C4)nc3)no2)C(C)C)cc1	< 50%
Cc1ncsc1-c1ccc([C@H](C)NC(=O)[C@@H]2C[C@@H](O)CN2C(=O)[C@@H](c2cc(OCCN3CCC(c4cc5nnc(-c6ccccc6O)cc5[nH]4)CC3)no2)C(C)C)cc1	> 75%
Cc1ncsc1-c1ccc([C@H](C)NC(=O)[C@@H]2C[C@@H](O)CN2C(=O)[C@@H](c2cc(-c3cnc(N4CC[C@H](c5cc6nnc(-c7ccccc7O)cc6n5C5(C)CC5)C4)nc3)no2)C(C)C)cc1	> 75%
Cc1ncsc1-c1ccc([C@H](C)NC(=O)[C@@H]2C[C@@H](O)CN2C(=O)[C@@H](c2cc(-c3cnc(N4CC[C@H](c5cc6nnc(-c7cc(F)cc(F)c7O)cc6n5C5CC5)C4)nc3)no2)C(C)C)cc1	< 50%
Cc1ncsc1-c1ccc([C@H](C)NC(=O)[C@@H]2C[C@@H](O)CN2C(=O)[C@@H](c2cc(-c3cnc(N4CC[C@H](c5cc6nnc(-c7cc(F)cc(Cl)c7O)cc6n5C5CC5)C4)nc3)no2)C(C)C)cc1	> 50%

## Input Given the compound `Cc1ncsc1-c1ccc([C@H](C)NC(=O)[C@@H]2C[C@@H](O)CN2C(=O)[C@@H](c2cc(N(C)CCN3CC(c4cc5nnc(-c6ccccc6O)cc5n4C)C3)no2)C(C)C)cc1` , write its reported Dmax.
## Output > 50%

## Input Given the compound `CC(C)[C@@H](C(=O)N1C[C@H](O)C[C@H]1C(=O)N[C@@H](C)c1ccccc1)c1cc(-c2cnc(N3CC[C@H](c4cc5nnc(-c6ccccc6O)cc5n4C4CC4)C3)nc2)no1` , write its reported Dmax.
## Output < 50%

## Input Given the compound `Cc1ncsc1-c1ccc([C@H](C)NC(=O)[C@@H]2C[C@@H](O)CN2C(=O)[C@@H](c2cc(OCCN3CCC(c4cc5nnc(-c6ccccc6O)cc5n4C)CC3)no2)C(C)C)cc1` , write its reported Dmax.
## Output > 75%

## Input Given the compound `Cc1ncsc1-c1ccc([C@H](C)NC(=O)[C@@H]2C[C@@H](O)CN2C(=O)[C@H](c2cc(-c3cnc(N4CCC(c5cc6nnc(-c7ccccc7O)cc6n5C(C)C)CC4)nc3)no2)C(C)C)cc1` , write its reported Dmax.
## Output < 50%

## Input Given the compound `Cc1ncsc1-c1ccc([C@H](C)NC(=O)[C@@H]2C[C@@H](O)CN2C(=O)[C@@H](c2cc(N3CC4(CCC(c5cc6nnc(-c7ccccc7O)cc6n5C5CC5)CC4)C3)no2)C(C)C)cc1` , write its reported Dmax.
## Output > 75%

## Input Given the compound `Cc1ncsc1-c1ccc([C@H](C)NC(=O)[C@@H]2C[C@@H](O)CN2C(=O)[C@@H](c2cc(OCCN3CC(n4cc(C(F)F)c5nnc(-c6ccccc6O)cc54)C3)no2)C(C)C)cc1` , write its reported Dmax.
## Output < 50%

## Input Given the compound `Cc1ncsc1-c1ccc([C@H](C)NC(=O)[C@@H]2C[C@@H](O)CN2C(=O)[C@@H](c2cc(N3CCC(C(=O)N4CC(c5cc6nnc(-c7ccccc7O)cc6[nH]5)C4)CC3)no2)C(C)C)cc1` , write its reported Dmax.
## Output > 75%

## Input Given the compound `Cc1ncsc1-c1ccc([C@H](C)NC(=O)[C@@H]2C[C@@H](O)CN2C(=O)[C@@H](C(C)C)n2cc(-c3cnc(N4CC[C@H](c5cc6nnc(-c7ccccc7O)cc6n5C5CC5)C4)nc3)nn2)cc1` , write its reported Dmax.
## Output < 50%

## Input Given the compound `Cc1ncsc1-c1ccc([C@H](C)NC(=O)[C@@H]2C[C@@H](O)CN2C(=O)[C@@H](c2cc(N3CC4(CC(c5cc6nnc(-c7ccccc7O)cc6n5C56CC(C5)C6)C4)C3)no2)C(C)C)cc1` , write its reported Dmax.
## Output < 50%

## Input Given the compound `Cc1ncsc1-c1ccc([C@H](C)NC(=O)[C@@H]2C[C@@H](O)CN2C(=O)[C@@H](c2cc(N3CCC(CN4CC(c5cc6nnc(-c7ccccc7O)cc6[nH]5)C4)CC3)no2)C(C)C)cc1` , write its reported Dmax.
## Output > 50%

## Input Given the compound CC(C)C(C(=O)N1C[C@H](O)C[C@H]1C(=O)NC12CC(C1)C2)c1cc(N2CC3(CC(c4cc5nnc(-c6ccccc6O)cc5n4C4CCC4)C3)C2)no1 (stereo partly shown) , write its reported Dmax.
## Output < 50%

---

assayed target: HiBit-BRM fusion protein (Homo sapiens)
Construct: expressed in transfected cells
Sequence (P51531 whole entry, the tested form may be a part): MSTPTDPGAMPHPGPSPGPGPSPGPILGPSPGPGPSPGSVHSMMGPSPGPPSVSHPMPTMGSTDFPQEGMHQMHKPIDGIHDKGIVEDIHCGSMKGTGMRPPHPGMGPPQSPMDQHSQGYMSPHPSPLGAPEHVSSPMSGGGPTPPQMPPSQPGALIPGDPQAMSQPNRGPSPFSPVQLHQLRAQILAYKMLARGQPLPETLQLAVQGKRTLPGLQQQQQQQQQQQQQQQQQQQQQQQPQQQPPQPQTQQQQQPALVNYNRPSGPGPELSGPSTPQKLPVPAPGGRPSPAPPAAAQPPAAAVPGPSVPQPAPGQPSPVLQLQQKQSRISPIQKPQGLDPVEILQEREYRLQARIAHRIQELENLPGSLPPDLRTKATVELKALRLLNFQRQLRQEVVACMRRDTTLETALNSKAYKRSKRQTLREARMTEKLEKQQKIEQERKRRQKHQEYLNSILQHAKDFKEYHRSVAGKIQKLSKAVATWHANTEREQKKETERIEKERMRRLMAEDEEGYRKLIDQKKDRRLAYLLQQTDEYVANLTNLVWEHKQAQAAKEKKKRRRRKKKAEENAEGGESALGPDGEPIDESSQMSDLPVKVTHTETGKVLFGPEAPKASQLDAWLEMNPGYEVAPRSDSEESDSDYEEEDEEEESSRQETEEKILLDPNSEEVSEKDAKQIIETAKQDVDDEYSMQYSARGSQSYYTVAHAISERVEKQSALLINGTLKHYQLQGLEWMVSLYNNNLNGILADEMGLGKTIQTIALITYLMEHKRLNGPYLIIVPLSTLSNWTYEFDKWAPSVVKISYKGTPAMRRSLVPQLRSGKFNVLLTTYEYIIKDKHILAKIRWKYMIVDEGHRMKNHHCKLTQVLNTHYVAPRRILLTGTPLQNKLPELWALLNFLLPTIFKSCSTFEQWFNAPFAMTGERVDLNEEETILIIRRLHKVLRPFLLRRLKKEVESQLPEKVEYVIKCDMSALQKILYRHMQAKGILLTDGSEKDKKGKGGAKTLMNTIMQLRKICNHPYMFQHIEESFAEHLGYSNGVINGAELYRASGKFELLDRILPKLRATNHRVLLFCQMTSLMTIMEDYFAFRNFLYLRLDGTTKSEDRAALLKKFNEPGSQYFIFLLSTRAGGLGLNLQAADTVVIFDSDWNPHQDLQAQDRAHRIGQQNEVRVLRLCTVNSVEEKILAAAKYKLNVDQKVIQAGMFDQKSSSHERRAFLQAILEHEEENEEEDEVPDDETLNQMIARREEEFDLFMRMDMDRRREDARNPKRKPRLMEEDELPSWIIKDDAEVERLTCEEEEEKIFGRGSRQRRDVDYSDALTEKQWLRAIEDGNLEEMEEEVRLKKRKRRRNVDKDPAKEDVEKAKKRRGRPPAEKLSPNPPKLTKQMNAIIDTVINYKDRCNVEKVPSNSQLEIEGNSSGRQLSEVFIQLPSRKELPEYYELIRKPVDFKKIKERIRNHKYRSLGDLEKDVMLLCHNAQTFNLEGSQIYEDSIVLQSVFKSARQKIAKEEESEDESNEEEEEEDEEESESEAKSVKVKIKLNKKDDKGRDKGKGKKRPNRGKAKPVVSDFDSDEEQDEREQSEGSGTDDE
method notes: HiBiT-BRM cell-based degradation assay (Nano-Glo HiBiT lytic detection, 24 h)
measurement conditions: HeLa cell line expressing HiBiT-BRM, read-out: BRM HiBit Degradation IC50
reported endpoint: DC50

line notation	assayed target	measured value
Cc1ncsc1-c1ccc([C@H](C)NC(=O)[C@@H]2C[C@@H](O)CN2C(=O)[C@@H](c2cc(OCCN3CCN(c4cc5nnc(-c6ccccc6O)cc5n4C)CC3)no2)C(C)C)cc1	HiBit-BRM fusion protein (Homo sapiens)	< 10 nM
Cc1ncsc1-c1ccc([C@H](C)NC(=O)[C@@H]2C[C@@H](O)CN2C(=O)[C@@H](c2cc(N3CC4(CC(c5cc6nnc(-c7ccccc7O)cc6n5CC5CC5)C4)C3)no2)C(C)C)cc1	HiBit-BRM fusion protein (Homo sapiens)	< 10 nM

// below: DC50 requested for another compound
## Input Given the compound `Cc1ncsc1-c1ccc([C@H](C)NC(=O)[C@@H]2C[C@@H](O)CN2C(=O)[C@@H](c2cc(-c3ccnc(N4CC[C@@H](c5cc6nnc(-c7ccccc7O)cc6n5C5CC5)C4)n3)no2)C(C)C)cc1` , write its reported DC50.
## Output > 10 nM
